FYI, the data here is from patent US20250313563A1.

# TARGET OR SYSTEM: UniProt:P49841
# PROTOCOL DETAILS: GSK3b TR-FRET kinase assay
# Type: biochemical
# SETUP CONDITIONS: 1 nM GSK3b, 2 μM ATP, 30 minute preincubation, Table 16; read-out: GSK3-B TR-FRET BIOCHEMICAL (TR-FRET); IC50
pIC50: −log10 of the molar value.
PROPERTY LABEL: pIC50

CC1(C)CC(=O)C2=C(C1)Nc1n[nH]cc1[C@@]21CCO[C@@H](C(F)(F)F)C1; < 5.30
CCC1(c2cccc(-c3cc(C)ncc3F)c2)C2=C(CC(C)(C)CC2=O)Nc2n[nH]cc21 (stereo not drawn) [Compound 927339]; < 5.30
CCC1(c2cccc(S(=O)(=O)c3ccccc3)c2)C2=C(CC(C)(C)CC2=O)Nc2n[nH]cc21 (stereo not drawn); ≥ 7.00
CC[C@]1(c2cccc(-c3ccnn3C3CC3(F)F)c2)C2=C(CC(C)(C)NC2=O)Nc2n[nH]cc21 (stereo partly drawn); ≥ 7.00
CCC1(c2cccc(NS(C)(=O)=O)c2)C2=C(CC(C)(C)CC2=O)Nc2n[nH]cc21 (stereo not drawn) [Compound 913253]; ≥ 7.00

Can you share its pIC50? I mean this compound: "CC[C@]1(c2cccc(-c3ccnc(OC)c3Cl)c2)C2=C(CC(C)(C)NC2=O)Nc2n[nH]cc21"
6.00 to 7.00

---

# TARGET OR SYSTEM: GSK3α (GST-full length GSK3α) (Homo sapiens (Human), UniProt P49840)
# Sequence (P49840 whole entry): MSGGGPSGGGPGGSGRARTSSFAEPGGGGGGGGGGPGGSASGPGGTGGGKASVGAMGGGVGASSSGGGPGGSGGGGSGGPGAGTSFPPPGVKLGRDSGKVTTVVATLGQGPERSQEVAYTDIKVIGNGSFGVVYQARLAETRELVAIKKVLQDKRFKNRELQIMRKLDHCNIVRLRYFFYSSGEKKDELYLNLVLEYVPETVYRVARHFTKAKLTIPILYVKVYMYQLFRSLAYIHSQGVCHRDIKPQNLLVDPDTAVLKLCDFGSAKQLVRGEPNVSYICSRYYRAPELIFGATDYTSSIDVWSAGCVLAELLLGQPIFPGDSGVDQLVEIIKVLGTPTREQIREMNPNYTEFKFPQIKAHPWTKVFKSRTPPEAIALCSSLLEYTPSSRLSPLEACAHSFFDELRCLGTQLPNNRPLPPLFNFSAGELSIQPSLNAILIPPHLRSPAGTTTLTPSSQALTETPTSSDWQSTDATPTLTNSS
# PROTOCOL DETAILS: GSK3α TR-FRET kinase assay
# Format: biochemical
# SETUP CONDITIONS: 1 nM GSK3α, 4 μM ATP, 30 minute preincubation; geometric mean; read-out: GSK3-A TR-FRET BIOCHEMICAL (TR-FRET); GMean; IC50
This listing pairs compounds with measured IC50.

Past entries and their recorded results:
C[C@H]1CC(=O)C2=C(C1)Nc1n[nH]cc1[C@@]2(C)c1ccccc1; 100 to 1000 nM
CCC1(c2cccc(-c3ccnc(C)c3)c2)C2=C(CC(C)(COC)NC2=O)Nc2n[nH]cc21 (stereo not shown) [Compound 948521]; ≤ 100 nM
CC[C@@]1(c2cccc(-c3cnn(C)c3C#N)c2)C2=C(CC(C)(C)NC2=O)Nc2n[nH]cc21; > 5000 nM

Any idea what its IC50 is? The compound is "CC[C@]1(c2cccc(C(F)F)c2)C2=C(CC(C)(C)NC2=O)Nc2n[nH]cc21"
≤ 100 nM

Similarly, "CC[C@]1(c2ccccc2)C2=C(CC3(CCC3)CC2=O)Nc2n[nH]cc21" ?
> 5000 nM

Try this compound next: CCC1(c2cccc(C(C)C)c2)C2=C(CC(C)(C)NC2=O)Nc2n[nH]c(C)c21 (stereo not shown)
≤ 100 nM

Also need "CC[C@]1(c2ccccc2)C2=C(Nc3n[nH]cc31)[C@H](C)C[C@@H](C)C2=O" , thanks.
≤ 100 nM

---

# TARGET OR SYSTEM: GSK3b (GST-full length GSK3b) (Homo sapiens (Human))
# Sequence (P49841 whole entry): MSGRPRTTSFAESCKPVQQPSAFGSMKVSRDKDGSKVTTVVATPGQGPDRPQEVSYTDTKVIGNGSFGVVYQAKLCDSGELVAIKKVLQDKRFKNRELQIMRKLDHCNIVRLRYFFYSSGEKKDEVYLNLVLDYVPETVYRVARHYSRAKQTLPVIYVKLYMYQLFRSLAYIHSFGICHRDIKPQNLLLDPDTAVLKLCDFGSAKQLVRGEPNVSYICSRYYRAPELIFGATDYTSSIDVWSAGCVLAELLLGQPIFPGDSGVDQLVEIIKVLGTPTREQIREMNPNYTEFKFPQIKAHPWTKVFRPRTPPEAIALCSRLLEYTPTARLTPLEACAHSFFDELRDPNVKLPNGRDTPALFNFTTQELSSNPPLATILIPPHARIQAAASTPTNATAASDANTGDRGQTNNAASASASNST
# PROTOCOL DETAILS: GSK3b TR-FRET kinase assay
# Format: biochemical
# SETUP CONDITIONS: 1 nM GSK3b, 2 μM ATP, 30 minute preincubation; read-out: GSK3-B TR-FRET BIOCHEMICAL (TR-FRET); IC50
pIC50: −log10 of the molar value.
PROPERTY LABEL: pIC50

Example entries and their recorded answers appear below.
CC1CC(C(=O)N2CC3(C2)CC2(CO3)C3=C(CC(C)(C)CC3=O)Nc3n[nH]cc32)C1 (stereo not drawn) [Compound 947732]; 5.30 to 6.00
CCCC(=O)N1CC2(C1)CC1(CO2)C2=C(CC(C)(C)CC2=O)Nc2n[nH]cc21 (stereo not drawn) [Compound 947300]; ≥ 7.00

Would you kindly look at the next entry?
Reported pIC50, molecule Cc1cc(C)cc(C(=O)N2CC3(C2)CC2(CO3)C3=C(CC(C)(C)CC3=O)Nc3n[nH]cc32)c1 (stereo not drawn) [Compound 948222] : ____
5.30 to 6.00
